Source of measurements: patent US20250353863A1

Listed next: entries and their corresponding IC50.
- targetDesc: purified Ndh (Mtb recombinant MBP tagged Ndh-2 enzyme, MBP-Ndh) (Mycobacterium tuberculosis (strain ATCC 25618 / H37Rv), UniProt P95160)
- Sequence (P95160 whole entry, looked up): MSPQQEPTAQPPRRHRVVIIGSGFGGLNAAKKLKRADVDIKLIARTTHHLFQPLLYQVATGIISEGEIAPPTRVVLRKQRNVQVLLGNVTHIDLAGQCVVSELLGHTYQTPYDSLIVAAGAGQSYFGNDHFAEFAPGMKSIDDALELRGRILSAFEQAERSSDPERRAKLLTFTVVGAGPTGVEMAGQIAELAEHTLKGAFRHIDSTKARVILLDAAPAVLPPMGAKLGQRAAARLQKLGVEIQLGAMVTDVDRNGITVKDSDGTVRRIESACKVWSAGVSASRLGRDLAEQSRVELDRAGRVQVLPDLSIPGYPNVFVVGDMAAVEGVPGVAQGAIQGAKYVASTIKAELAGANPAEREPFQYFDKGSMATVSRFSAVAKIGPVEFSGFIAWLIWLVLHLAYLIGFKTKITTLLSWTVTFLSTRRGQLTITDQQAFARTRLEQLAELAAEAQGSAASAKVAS
- testSummary: Biochemical evaluation of MBP-Ndh inhibition (NADH oxidation with menadione)
- appliedConditions: NADH 500 μM, menadione 100 μM; read-out: IC50 (μM) purified Ndh

* CC(C)[C@H]1CO[C@]23CCN(Cc4cccnc4)C[C@H]2CCC(=O)N13 | > 1 µM
* CC(C)[C@H]1CO[C@]23CCN(S(=O)(=O)c4ccc(C(F)(F)F)cc4)C[C@H]2CCC(=O)N13 | 0.1 to 1 µM
* CC(C)[C@H]1CO[C@]23CCN(Cc4ccc(C(F)(F)F)nc4)C[C@H]2CCC(=O)N13 | < 0.1 µM
* CC(C)[C@H]1CO[C@]23CCN(CCc4ccc(C(F)(F)F)cc4)C[C@H]2CCC(=O)N13 | 0.1 to 1 µM
* CC(C)[C@H]1CO[C@]23CCN(Cc4ccc5ccccc5n4)C[C@H]2CCC(=O)N13 | 0.1 to 1 µM
* CC(C)[C@H]1CO[C@]23CCN(Cc4ccc(C(F)(F)F)cn4)C[C@H]2CCC(=O)N13 | 0.1 to 1 µM
* CC(C)[C@H]1CO[C@]23CCN(C(=O)OCc4ccccc4)C[C@H]2CCC(=O)N13 | 0.1 to 1 µM
* CC(C)[C@H]1CO[C@]23CCN(C(=O)Cc4ccccc4)C[C@H]2CCC(=O)N13 | > 1 µM

// query IC50 value for entry CC(C)[C@H]1CO[C@]23CCN(CC4CCCCC4)C[C@H]2CCC(=O)N13
0.1 to 1 µM

// repeat for CC(C)[C@H]1CO[C@]23CCN(Cc4cccc5cccnc45)C[C@H]2CCC(=O)N13 and report
> 1 µM

// query: COc1ccc(CN2CC[C@]34OC[C@H](C(C)C)N3C(=O)CC[C@@H]4C2)cc1
0.1 to 1 µM

###

MIC values by entry
- Tested on: Mtb H37Rv-WT
- testSummary: MIC by resazurin microtiter assay (REMA) against Mtb
- Assay type: cell-based
- appliedConditions: Mycobacterium tuberculosis, 144 h, REMA, 37° C., 6 days, read-out: MIC (μM) H37Rv-WT

The examples below pair each entry with its known result.
• CC(C)[C@H]1CO[C@]23CCN(Cc4ccc(C(F)(F)F)cc4)C[C@H]2C[C@@H](F)C(=O)N13 = < 1 µM
• C=CC[C@@H]1C[C@@H]2CN(Cc3ccc(C(F)(F)F)cc3)CC[C@@]23OC[C@H](C(C)C)N3C1=O = 1 to 10 µM
• CC(C)[C@H]1CO[C@]23CCN(Cc4ccc(C(F)(F)F)cn4)C[C@H]2CCC(=O)N13 = < 1 µM
• CC(C)[C@H]1CO[C@]23CCN(c4ccc(C(F)(F)F)cc4)C[C@H]2CCC(=O)N13 = 1 to 10 µM
• CC(C)[C@H]1CO[C@]23CCN(Cc4ccc(C(F)(F)F)cc4)C[C@H]2C[C@H](C)C(=O)N13 (single isomer, unassigned) = 1 to 10 µM
• CC(C)[C@H]1CO[C@]23CCN(Cc4ccc(N5CCC(Oc6ccc(OC(F)(F)F)cc6)CC5)cc4)C[C@H]2CCC(=O)N13 = < 1 µM

Given the molecule CC(C)[C@H]1CO[C@]23CCCN(Cc4ccc(C(F)(F)F)cc4)C[C@H]2CCC(=O)N13 , what is its reported MIC?
< 1 µM

Cool, now CC(C)[C@H]1CO[C@]23CCN(CC4CCCO4)C[C@H]2CCC(=O)N13 (some centres unmarked)
> 10 µM

Next: CC(C)[C@H]1CO[C@]23CCN(Cc4cccc(Oc5ccccc5)c4)C[C@H]2CCC(=O)N13
< 1 µM
